# PROCEDURE SUMMARY: Pharmacokinetic profiles of PEGylated peptides in Fisher 344 rats
# Type: in vivo, rat
# CONDITION PARAMETERS: 100 μg agonist/kg, plasma RIA, mean N = 3
RESULT TYPE: T½ (h)
Field format: number, assumed h, no unit text.

Example substances with recorded T½:
SUBSTANCE	UNIT NAME	T½
C6-HSDAVFTEQY(OMe)TOrnLRAibQLAAbuAibOrnY(OMe)LQAibIOrnOrnGGPSSGAPPPC(PEG20K)C(PEG20K)-NH2 (HSDAVFTEQYTXLRXQLAXXXYLQXIXXGGPSSGAPPPCC; C6 acyl, non-natural residues, two PEG20K, C-terminal amide; Synthetic sequence PEGylated VPAC2 receptor agonist) [Agonist P574]	h	18
C6-HSDAVFTEQY(OMe)TOrnLRAibQLAAbuAibOrnYLQSIOrnC(PEG20K)OrnGGPSSGAPPPC(PEG20K)-NH2 (HSDAVFTEQYTXLRXQLAXXXYLQSIXCXGGPSSGAPPPC; C6 acyl, two PEG20K, C-terminal amide; Synthetic sequence PEGylated VPAC2 receptor agonist) [Agonist P555]	h	13

# context switch: different substance, same T½
Form: substance = C6-HSDAVFTEQY(OMe)TOrnLRAibQVAAAibOrnYLQSIOrnK(CO(CH2)2SPEG20K)OrnGGPSSGAPPPC(PEG20K)-NH2 (HSDAVFTEQYTXLRXQVAAXXYLQSIXXXGGPSSGAPPPC; C6 acyl, two PEG20K, C-terminal amide; Synthetic sequence PEGylated VPAC2 receptor agonist) [Agonist P499] ; T½ = 25
